- EXPERIMENTAL_DETAILS: physchem
- ASSAY_CONDITIONS: 37 °C, pH 1.2, simulated gastric fluid, thermodynamic from solid, Solubility JP1 (pH 1.2), 20 hr
Rule: solubility of 2000 µg/mL or more gives Condition met; anything lower gives Condition not met.

State whether the measured solubility reaches 2000 µg/mL, counting equality as reaching it, for `CN1CC(=O)N2[C@@H](Cc3ccc(OP(=O)([O-])[O-])cc3)C(=O)N(Cc3cccc4cccnc34)C[C@@H]2N1C(=O)NCc1ccccc1.[Na+].[Na+]`
Condition met

Tell me whether solubility is at least 2000 µg/mL here: `CN(C)c1cc(F)c(F)cc1CN1C[C@H]2N(C(=O)CN(C)N2C(=O)NCc2ccccc2)[C@@H](Cc2ccc(OP(=O)([O-])[O-])cc2)C1=O.[Na+].[Na+]`
Condition met

Threshold query (solubility >= 2000 µg/mL) on `CN1CC(=O)N2[C@@H](Cc3ccc(OP(=O)(O)O)cc3)C(=O)N(Cc3cccc4cnn(C)c34)C[C@@H]2N1C(=O)NCc1ccccc1`
Condition not met

Determine whether measured solubility meets or exceeds 2000 µg/mL for `CN1CC(=O)N2[C@@H](Cc3ccc(OP(=O)([O-])[O-])cc3)C(=O)N(Cc3ccc(F)cc3F)C[C@@H]2N1C(=O)NCc1ccccc1.[Na+].[Na+]`
Condition not met

Identify whether the reported solubility of the following compound is 2000 µg/mL or greater: `C=CCN1CC(=O)N2[C@@H](Cc3ccc(OP(=O)([O-])[O-])cc3)C(=O)N(Cc3ccc(F)cc3F)C[C@@H]2N1C(=O)NCc1ccccc1.[Na+].[Na+]`
Condition not met

Record `C=CCN1CC(=O)N2[C@@H](Cc3ccc(OP(=O)([O-])[O-])cc3)C(=O)N(Cc3cccc4cccnc34)C[C@@H]2N1C(=O)NCc1ccccc1.[Na+].[Na+]` ; criterion: solubility no lower than 2000 µg/mL. Met?
Condition not met

Determine whether measured solubility meets or exceeds 2000 µg/mL for `C=CCN1CC(=O)N2[C@@H](Cc3ccc(OP(=O)([O-])[O-])cc3)C(=O)N(Cc3ccc(Cl)c4cccnc34)C[C@@H]2N1C(=O)NCc1ccccc1.[Na+].[Na+]`
Condition not met

All values here come from patent US7932384B2.
